- Tested on: Hepatitis C virus
- test: Antiviral activity against HCV genotype 2a assessed as replicon RNA level measured after 3 days by real-time PCR method
- Assay type: functional, organism-based, Hepacivirus hominis
- particulars: 72 h
Examples of molecules with documented EC50 follow.
Units required after the number.

Example molecules with recorded EC50:
Consider the molecule shown here: COC(=O)N[C@H](C(=O)N1CCC[C@H]1c1ncc(-c2ccc3c(c2)OC(c2cccc(C(=O)O)c2)n2c-3cc3cc(-c4cnc([C@@H]5CCCN5C(=O)[C@@H](NC(=O)OC)C(C)C)[nH]4)ccc32)[nH]1)C(C)C (mixture of isomers) What is its recorded EC50?
11.8 nM

Queued: COC(=O)N[C@H](C(=O)N1CCC[C@H]1c1ncc(-c2ccc3c(c2)OC(c2ccc(F)c(F)c2)n2c-3cc3cc(-c4cnc([C@@H]5CCCN5C(=O)[C@@H](NC(=O)OC)C(C)C)[nH]4)ccc32)[nH]1)C(C)C (some centres not stated)
0.005 nM

Next molecule: COC(=O)N[C@H](C(=O)N1CCC[C@H]1c1ncc(-c2ccc3c(c2)OC(c2cccc(C(N)=O)c2)n2c-3cc3cc(-c4cnc([C@@H]5CCCN5C(=O)[C@@H](NC(=O)OC)C(C)C)[nH]4)ccc32)[nH]1)C(C)C (mixture of isomers)
0.51 nM

Follow-up item: COC(=O)N[C@H](C(=O)N1CCC[C@H]1c1ncc(-c2ccc3c(c2)OC(c2cccnc2)n2c-3cc3cc(-c4cnc([C@@H]5CCCN5C(=O)[C@@H](NC(=O)OC)C(C)C)[nH]4)ccc32)[nH]1)C(C)C (mixture of isomers)
0.04 nM

Moving on to the next molecule: COC(=O)N[C@H](C(=O)N1CCC[C@H]1c1ncc(-c2ccc3c(c2)OC(c2cccc(-c4ccncc4)c2)n2c-3cc3cc(-c4cnc([C@@H]5CCCN5C(=O)[C@@H](NC(=O)OC)C(C)C)[nH]4)ccc32)[nH]1)C(C)C (mixture of isomers)
0.007 nM

Continuing:
I am curious: what EC50 value has been reported for COC(=O)N[C@H](C(=O)N1CCC[C@H]1c1ncc(-c2ccc3c(c2)OC(c2ccc(-c4ccc5cncn5c4)cc2)n2c-3cc3cc(-c4cnc([C@@H]5CCCN5C(=O)[C@@H](NC(=O)OC)C(C)C)[nH]4)ccc32)[nH]1)C(C)C (mixture of isomers) ?
0.04 nM

Same lookup for COC(=O)N[C@H](C(=O)N1CCC[C@H]1c1ncc(-c2ccc3c(c2)OC(c2ccc(-c4cncnc4)cc2)n2c-3cc3cc(-c4cnc([C@@H]5CCCN5C(=O)[C@@H](NC(=O)OC)C(C)C)[nH]4)ccc32)[nH]1)C(C)C (mixture of isomers) , please.
0.04 nM

Another: CCOc1cccc(C2Oc3cc(-c4cnc([C@@H]5CCCN5C(=O)[C@@H](NC(=O)OC)C(C)C)[nH]4)ccc3-c3cc4cc(-c5cnc([C@@H]6CCCN6C(=O)[C@@H](NC(=O)OC)C(C)C)[nH]5)ccc4n32)c1 (mixture of isomers)
0.01 nM

Same lookup for COC(=O)N[C@H](C(=O)N1CCC[C@H]1c1ncc(-c2ccc3c(c2)OC(c2ccccc2Cl)n2c-3cc3cc(-c4cnc([C@@H]5CCCN5C(=O)[C@@H](NC(=O)OC)C(C)C)[nH]4)ccc32)[nH]1)C(C)C (some centres not stated) , please.
0.04 nM

Same question, COC(=O)N[C@H](C(=O)N1CCC[C@H]1c1ncc(-c2ccc3c(c2)OC(c2cccc(OC(F)(F)F)c2)n2c-3cc3cc(-c4cnc([C@@H]5CCCN5C(=O)[C@@H](NC(=O)OC)C(C)C)[nH]4)ccc32)[nH]1)C(C)C (mixture of isomers) this time
0.003 nM

Ok, now COC(=O)N[C@H](C(=O)N1CCC[C@H]1c1ncc(-c2ccc3c(c2)OC(c2cc(F)cc(F)c2)n2c-3cc3cc(-c4cnc([C@@H]5CCCN5C(=O)[C@@H](NC(=O)OC)C(C)C)[nH]4)ccc32)[nH]1)C(C)C (some centres not stated)
0.02 nM

Item: COC(=O)N[C@H](C(=O)N1CCC[C@H]1c1ncc(-c2ccc3c(c2)OC(c2cccc(N4CCOCC4)c2)n2c-3cc3cc(-c4cnc([C@@H]5CCCN5C(=O)[C@@H](NC(=O)OC)C(C)C)[nH]4)ccc32)[nH]1)C(C)C (mixture of isomers)
0.002 nM

Same for COC(=O)N[C@H](C(=O)N1CCC[C@H]1c1ncc(-c2ccc3c(c2)OC(c2cncnc2)n2c-3cc3cc(-c4cnc([C@@H]5CCCN5C(=O)[C@@H](NC(=O)OC)C(C)C)[nH]4)ccc32)[nH]1)C(C)C (mixture of isomers)
0.02 nM
